Examples of compounds with documented IC50 follow.
- Test system: HEp-2
- assayProcedure: Cytotoxicity against human Hep2 cells under dark condition after 18 hrs by celltiter blue assay
- Assay type: functional, cell-based
- testSettings: HEp-2, 18 h

{"compound": "C=Cc1c(C)c2cc3nc(c(CC(=O)N[C@@H](CCCCN)C(=O)OC)c4[nH]c(cc5nc(cc1[nH]2)C(C)=C5CC)c(C)c4C(=O)OC)[C@@H](CCC(=O)OC)[C@@H]3C", "IC50": "> 400 µM"}
{"compound": "C=Cc1c(C)c2cc3nc(c(CC(=O)O)c4[nH]c(cc5nc(cc1[nH]2)C(C)=C5CC)c(C)c4C(=O)O)[C@@H](CCC(=O)O)[C@@H]3C [CHLORIN E6]", "IC50": "> 400 µM"}
{"compound": "C=Cc1c(C)c2cc3nc(c(CC(=O)OC)c4[nH]c(cc5nc(cc1[nH]2)C(C)=C5CC)c(C)c4C(=O)OC)[C@@H](CCC(=O)N[C@@H](CCCCN)C(=O)OC)[C@@H]3C", "IC50": "> 400 µM"}

Every entry's value here was drawn from ChEMBL document CHEMBL1955721.
